# assay: Microsomal stability assay, human liver microsome
# Type: in vitro ADME
# condition-set: liver microsomes, pH 7.4, 0.2 mg/mL, 1 μM compound, 37° C., read-out: Clint HLM

{"columns": ["compound", "quantity-unit", "microsomal CLint at 1 μM"],
 "data": [
  ["N#Cc1cnc(Nc2cc(-c3ccccc3OCC3CCCNC3)on2)cn1 (stereo not drawn) [Compound 1.3]", "µL/min/mg", 47],
  ["N#Cc1cnc(Nc2cc(-c3cc4ccccc4cc3OCCN)[nH]n2)cn1 [Compound 2.6]", "µL/min/mg", 3],
  ["N#Cc1cnc(Nc2cc(-c3cc4ccccc4cc3OCC3CCNCC3)[nH]n2)cn1 [Compound 2.1]", "µL/min/mg", 25]
]}
